- target-or-system: biotinylated human DLL3 protein expressed as a human IgG1 fusion protein (human) (UniProt Q9NYJ7)
- Sequence (Q9NYJ7 other isoform, or with tags, fused parts or gaps): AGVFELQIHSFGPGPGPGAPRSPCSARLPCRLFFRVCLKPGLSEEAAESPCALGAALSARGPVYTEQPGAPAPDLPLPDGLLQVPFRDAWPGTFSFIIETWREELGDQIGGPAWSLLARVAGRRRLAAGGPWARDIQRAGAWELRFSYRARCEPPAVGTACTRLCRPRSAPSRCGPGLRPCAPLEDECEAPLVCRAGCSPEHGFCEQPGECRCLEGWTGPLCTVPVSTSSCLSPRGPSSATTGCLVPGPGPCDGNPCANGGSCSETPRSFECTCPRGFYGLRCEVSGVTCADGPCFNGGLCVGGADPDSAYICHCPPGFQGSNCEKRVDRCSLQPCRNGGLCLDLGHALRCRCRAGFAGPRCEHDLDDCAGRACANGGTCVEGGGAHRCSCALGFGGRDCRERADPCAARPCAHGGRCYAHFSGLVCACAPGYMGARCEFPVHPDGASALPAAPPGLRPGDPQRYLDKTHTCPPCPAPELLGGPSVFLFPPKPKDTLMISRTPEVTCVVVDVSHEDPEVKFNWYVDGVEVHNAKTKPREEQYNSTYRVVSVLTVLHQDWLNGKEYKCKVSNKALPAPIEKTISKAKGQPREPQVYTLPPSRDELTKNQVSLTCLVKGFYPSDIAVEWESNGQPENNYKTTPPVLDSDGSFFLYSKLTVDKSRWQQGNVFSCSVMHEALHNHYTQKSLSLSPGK
- experimental-details: Octet BLI; biotinylated huDLL3-IgG1 fusion on streptavidin tips; single 50 nM; conditioned medium
assay-metric: Kd (nM)

# binder, assay-metric, readout-unit, readout-value
measured = [
    ("anti-DLL3 trispecific protein 3B011 (protein, part only; not given: anti-CD3 and anti-albumin domains, part only) chain, part: EVQLVESGGGLVQPGGSLTLSCAASGSSVSFLSMAWYRQAPGKKRELVAGISADGSADYIDSVKGRFTISRDNAKNSVYLQMNSLRAEDTAVYYCYAYRWVTRYTYWGQGTLVTVSSGGGGSGGGSGGGGSGGGSHHHHHH", "Kd", "nM", 9),
    ("anti-DLL3 trispecific protein 1A01 (protein, part only; not given: anti-CD3 and anti-albumin domains, part only) chain, part: EVQLVESGGGLVQPGGSLTLSCVASGFTSSINAMGWYRRAPGKQRELVAGISSDGSFVYADSVKGRFTISRDNAKNSVYLQMNSLRAEDTAVYYCYYFRHVSGSSMRYWGQGTLVTVSSGGGGSGGGSGGGGSGGGSHHHHHH", "Kd", "nM", 7),
    ("anti-DLL3 trispecific protein 1A06 (protein, part only; not given: anti-CD3 fragment and anti-albumin sdAb, part only) chain, part: EVQLVESGGGLVQPGGSLTLSCVASGSTSSINAMGWYRRAPGKQRELAAGISSDGSSVYADSVKGRFTISRDNAKNSVYLQMNSLRAEDTAVYYCYYFRTVSGSSKRYWGQGTLVTVSSGGGGSGGGSGGGGSGGGSHHHHHH", "Kd", "nM", 5.6),
    ("anti-DLL3 trispecific protein 3F011 (protein, part only; not given: anti-CD3 and anti-albumin domains, part only) chain, part: EVQLVESGGGLVQPGGSLTLSCAASGSSVSFLSMAWYRQAPGKKRELVAGISTDGSTDYIDSVKGRFTISRDNAKNSVYLQMNSLRAEDTAVYYCYAYRWRTRYTYWGQGTLVTVSSGGGGSGGGSGGGGSGGGSHHHHHH", "Kd", "nM", 7.1),
    ("anti-DLL3 trispecific protein 2D010 (protein, part only; not given: CD3 binder and albumin binder, part only) chain, part: EVQLVESGGGLVQPGGSLTLSCVASGSTSSINAMGWYRRAPGKQRELVAGISSDGSKVYADSVKGRFTISRDNAKNSVYLQMNSLRAEDTAVYYCYYFRTKSGSSMRYWGQGTLVTVSSGGGGSGGGSGGGGSGGGSHHHHHH", "Kd", "nM", 7.3),
    ("anti-DLL3 trispecific protein 2H010 (protein, part only; not given: CD3 fragment and albumin sdAb, part only) chain, part: EVQLVESGGGLVQPGGSLTLSCVASGSTSSINAMGWYRRAPGKQRELAAGISSDGSKLYADSVKGRFTISRDNAKNSVYLQMNSLRAEDTAVYYCYYFRTVSGSSMRYWGQGTLVTVSSGGGGSGGGSGGGGSGGGSHHHHHH", "Kd", "nM", 6.4),
    ("anti-DLL3 trispecific protein 1H07 (protein, part only; not given: anti-CD3 fragment and anti-albumin sdAb, part only) chain, part: EVQLVESGGGLVQPGGSLTLSCVASGSTSSINAFGWYRRAPGKQRELVAGISSDGSKVYSDSVKGRFTISRDNAKNSVYLQMNSLRAEDTAVYYCYYFRTVSGSSMRYWGQGTLVTVSSGGGGSGGGSGGGGSGGGSHHHHHH", "Kd", "nM", 6.2),
]

Value source: patent US20200095340A1
